# TESTED_SYSTEM: Pim-1 (Homo sapiens (Human), UniProt P11309)
# Sequence (P11309 whole entry): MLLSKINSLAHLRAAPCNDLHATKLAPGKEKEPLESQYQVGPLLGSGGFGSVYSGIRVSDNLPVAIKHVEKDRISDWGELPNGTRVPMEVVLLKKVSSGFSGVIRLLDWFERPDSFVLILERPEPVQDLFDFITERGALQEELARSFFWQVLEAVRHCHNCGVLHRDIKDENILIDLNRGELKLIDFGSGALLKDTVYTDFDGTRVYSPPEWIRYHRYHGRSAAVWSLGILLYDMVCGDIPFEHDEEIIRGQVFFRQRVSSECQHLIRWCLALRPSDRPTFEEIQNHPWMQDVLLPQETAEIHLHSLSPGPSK
# ASSAY_TEXT: Pim-Mn enzyme assay (HTRF, 384-well), Pim-1
# Format: biochemical
# REPORTED_CONDITIONS: Pim-1 enzyme 5 pM, ATP 1.5 μM, BAD (S112) 0.5 μM, HTRF, 22-point curve; read-out: Pim-1-Mn IC50 IP

- MOLECULE: "Cc1nc2ccc(F)c(-c3cc4c([nH]3)[C@H](C)NC4=O)c2nc1NC1CC1"
  UNIT_DESCRIPTOR: "nM"
  IC50: 0.534
- MOLECULE: "Cc1nc2cccc(-c3cc4c([nH]3)CNC4=O)c2nc1NCC(F)(F)F"
  UNIT_DESCRIPTOR: "nM"
  IC50: 1.25
- MOLECULE: "C[C@H]1NC(=O)c2cc(-c3cccc4c(=O)[nH]c(NC(C)(C)C)nc34)[nH]c21"
  UNIT_DESCRIPTOR: "nM"
  IC50: 0.1
- MOLECULE: "CC#CCC1CNC(=O)c2cc(-c3cccc4nc(C)c(F)nc34)[nH]c21 (racemic)"
  UNIT_DESCRIPTOR: "nM"
  IC50: 838

----------
Some compounds, each annotated with its measured IC50.
# TESTED_SYSTEM: UniProt Q9P1W9
# Sequence (Q9P1W9 whole entry): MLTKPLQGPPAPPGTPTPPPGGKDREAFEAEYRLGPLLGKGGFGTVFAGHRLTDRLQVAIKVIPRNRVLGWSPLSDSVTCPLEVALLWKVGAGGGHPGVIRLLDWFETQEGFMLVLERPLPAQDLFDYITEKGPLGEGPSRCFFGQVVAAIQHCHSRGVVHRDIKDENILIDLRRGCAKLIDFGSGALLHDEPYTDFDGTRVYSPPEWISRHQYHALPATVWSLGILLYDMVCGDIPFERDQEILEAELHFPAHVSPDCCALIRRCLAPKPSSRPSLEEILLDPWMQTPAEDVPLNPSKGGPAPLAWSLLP
# ASSAY_TEXT: Pim-Mn enzyme assay (HTRF, 384-well), Pim-2
# Format: biochemical
# REPORTED_CONDITIONS: read-out: Pim-2-Mn IC50 IP
Counter-ions that a name gives are not always drawn.

- COMPOUND: "Cc1nc2ccc(F)c(-c3cc4c(=O)[nH]ccc4[nH]3)c2nc1NC(C)(C)C [Example 371, 2,2,2-trifluoroacetate salt]"
  UNIT_DESCRIPTOR: "nM"
  IC50: 0.0667
- COMPOUND: "Cc1nc2cccc(-c3cc4c([nH]3)C3(CC3)NC4=O)c2nc1NC(C)(C)C"
  UNIT_DESCRIPTOR: "nM"
  IC50: 0.223
- COMPOUND: "Cc1nc2cccc(-c3cc4c([nH]3)CCNC4=O)c2nc1NC(C)(C)CN"
  UNIT_DESCRIPTOR: "nM"
  IC50: 10.7
- COMPOUND: "Cc1nc2ccc(F)c(-c3cc4c([nH]3)C3(CC3)NC4=O)c2nc1NC1(C)CC1"
  UNIT_DESCRIPTOR: "nM"
  IC50: 0.0354
- COMPOUND: "CC(C)(C)Nc1nc2c(-c3cc4c([nH]3)CCNC4=O)cccc2nc1N1CCC1"
  UNIT_DESCRIPTOR: "nM"
  IC50: 10.5
- COMPOUND: "Cc1nc2cccc(-c3cc4c([nH]3)CCNC4=O)c2nc1NS(C)(=O)=O [Example 240, 2,2,2-trifluoroacetate]"
  UNIT_DESCRIPTOR: "nM"
  IC50: 9.6
- COMPOUND: "Cc1nc2cccc(-c3cc4c([nH]3)[C@@H](C)NC4=O)c2nc1NC(C)(C)CO"
  UNIT_DESCRIPTOR: "nM"
  IC50: 1.45
- COMPOUND: "Cc1nc2cccc(-c3cc4c([nH]3)C3(CC3)NC4=O)c2nc1NCC(F)(F)F"
  UNIT_DESCRIPTOR: "nM"
  IC50: 1.36
- COMPOUND: "Cc1nc2cccc(-c3cc4c([nH]3)C(C)(C)NC4=O)c2nc1NC(C)(C)C"
  UNIT_DESCRIPTOR: "nM"
  IC50: 1.93
- COMPOUND: "Cc1nc2cccc(-c3cc4c([nH]3)CCNC4=O)c2nc1NC1CC(F)(F)C1"
  UNIT_DESCRIPTOR: "nM"
  IC50: 4.6
- COMPOUND: "Cc1nc2cccc(-c3cc4n(n3)CCNC4=O)c2nc1NC(C)(C)C"
  UNIT_DESCRIPTOR: "nM"
  IC50: 593
- COMPOUND: "Cc1nc2cccc(-c3cc4c(=O)[nH]nc(C)c4[nH]3)c2nc1NC(C)(C)C"
  UNIT_DESCRIPTOR: "nM"
  IC50: 15.8
- COMPOUND: "CC(=O)N1CC[C@H](Nc2nc3c(-c4cc5c([nH]4)CCNC5=O)cccc3nc2C)C1"
  UNIT_DESCRIPTOR: "nM"
  IC50: 72.8
- COMPOUND: "Cc1nc2cccc(-c3cc4c([nH]3)C3(CC3)NC4=O)c2nc1NC1(C)CC1"
  UNIT_DESCRIPTOR: "nM"
  IC50: 0.39
